List of IC50 tested on folate receptor beta (Homo sapiens (Human), UniProt P14207).
Sequence (P14207 17-255): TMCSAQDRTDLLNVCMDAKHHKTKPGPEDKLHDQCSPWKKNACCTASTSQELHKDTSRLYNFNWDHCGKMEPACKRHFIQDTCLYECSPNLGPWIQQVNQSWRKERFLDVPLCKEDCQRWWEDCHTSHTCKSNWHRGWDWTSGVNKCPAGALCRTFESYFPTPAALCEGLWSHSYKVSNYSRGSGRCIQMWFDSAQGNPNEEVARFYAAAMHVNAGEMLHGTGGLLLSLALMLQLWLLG

>  <MOLECULE>
Cc1nc2cc(F)c(-c3cnc(N4CCN(C(=O)COCCn5cc(CN(CCO)CCOCCOCCOCCNC(=O)CC[C@H](NC(=O)c6ccc(NCc7cnc8nc(N)nc(O)c8n7)cc6)C(=O)O)nn5)CC4)nc3)nc2c(N[C@H](C)c2cc(C#N)ccc2F)c1Cl [Compound I-93]

>  <MEASURED_TARGET>
folate receptor beta (Homo sapiens (Human), UniProt P14207)

>  <IC50>
6.6 nM

$$$$
>  <MOLECULE>
Cc1nc2cc(F)c(-c3cnc(N4CCN(C(=O)COCCOCCOCCOCCOCCOCCn5cc(CC[C@H](NC(=O)c6ccc(OCc7ccc8nc(N)nc(O)c8c7)cc6)C(=O)O)nn5)CC4)nc3)nc2c(N[C@H](C)c2cc(C#N)ccc2F)c1Cl [Compound I-87]

>  <MEASURED_TARGET>
folate receptor beta (Homo sapiens (Human), UniProt P14207)

>  <IC50>
8 nM

$$$$
>  <MOLECULE>
Cc1nc2cc(F)c(-c3cnc(N4CC5(CN(C(=O)COCCOCCOCCOCCOCCOCCn6cc(CC[C@H](NC(=O)c7ccc(NCc8cnc9nc(N)nc(O)c9n8)cc7)C(=O)O)nn6)C5)C4)nc3)nc2c(N[C@H](C)c2cc(C#N)ccc2F)c1Cl [Compound I-81]

>  <MEASURED_TARGET>
folate receptor beta (Homo sapiens (Human), UniProt P14207)

>  <IC50>
7.1 nM

$$$$
>  <MOLECULE>
Cc1nc2cc(F)c(-c3cnc(N4CCN(C(=O)COCCOCCOCCOCCOCCOCCn5cc(CC[C@H](NC(=O)c6ccc(CCc7ccc8nc(N)nc(O)c8c7)cc6)C(=O)O)nn5)CC4)nc3)nc2c(N[C@H](C)c2cc(C#N)ccc2F)c1Cl [Compound I-82]

>  <MEASURED_TARGET>
folate receptor beta (Homo sapiens (Human), UniProt P14207)

>  <IC50>
4.9 nM

$$$$
>  <MOLECULE>
Cc1nc2cc(F)c(-c3cnc(N4CCN(C(=O)COCCn5cc(CCCN6CCC7(CC6)CCN(C(=O)CC[C@H](NC(=O)c6ccc(NCc8cnc9nc(N)nc(O)c9n8)cc6)C(=O)O)CC7)nn5)CC4)nc3)nc2c(N[C@H](C)c2cc(C#N)ccc2F)c1Cl [Compound I-90]

>  <MEASURED_TARGET>
folate receptor beta (Homo sapiens (Human), UniProt P14207)

>  <IC50>
4.4 nM

$$$$
>  <MOLECULE>
Cc1nc2cc(F)c(-c3cnc(N4CCN(C(=O)COCCn5cc(COCCOCCOCCN6CCN(C(=O)[C@H](CCC(=O)O)NC(=O)c7ccc(NCc8cnc9nc(N)nc(O)c9n8)cc7)CC6)nn5)CC4)nc3)nc2c(N[C@H](C)c2cc(C#N)ccc2F)c1Cl [Compound I-97]

>  <MEASURED_TARGET>
folate receptor beta (Homo sapiens (Human), UniProt P14207)

>  <IC50>
17 nM

$$$$
>  <MOLECULE>
Cc1nc2cc(F)c(-c3cnc(N4CCN(C(=O)COCCOCCOCCOCCOCCOCCn5cc(CC[C@H](NC(=O)c6ccc(N(C)Cc7cnc8nc(N)[nH]c(=O)c8n7)cc6)C(=O)O)nn5)CC4)nc3)nc2c(N[C@H](C)c2cc(C#N)ccc2F)c1Cl [Compound I-86]

>  <MEASURED_TARGET>
folate receptor beta (Homo sapiens (Human), UniProt P14207)

>  <IC50>
7.7 nM

$$$$
>  <MOLECULE>
Cc1nc2cc(F)c(-c3cnc(N4CCN(C(=O)COCCn5cc(CN(CCO)CCOCCOCCOCCNC(=O)CC[C@H](NC(=O)c6ccc(NCc7cnc8nc(N)nc(O)c8n7)cc6)c6nn[nH]n6)nn5)CC4)nc3)nc2c(N[C@H](C)c2cc(C#N)ccc2F)c1Cl [Compound I-80]

>  <MEASURED_TARGET>
folate receptor beta (Homo sapiens (Human), UniProt P14207)

>  <IC50>
12 nM

$$$$
